Protein target, amino acids: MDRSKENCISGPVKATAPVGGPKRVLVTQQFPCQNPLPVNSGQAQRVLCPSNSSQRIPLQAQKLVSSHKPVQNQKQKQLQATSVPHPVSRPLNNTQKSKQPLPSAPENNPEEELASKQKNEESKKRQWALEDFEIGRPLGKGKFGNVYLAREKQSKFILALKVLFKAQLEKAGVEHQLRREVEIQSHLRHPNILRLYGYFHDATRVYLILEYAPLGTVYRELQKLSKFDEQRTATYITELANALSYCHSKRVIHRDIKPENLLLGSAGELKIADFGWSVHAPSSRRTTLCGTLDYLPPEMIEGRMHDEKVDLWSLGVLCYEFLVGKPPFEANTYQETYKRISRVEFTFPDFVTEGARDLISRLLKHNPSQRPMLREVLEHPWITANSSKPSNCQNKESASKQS
Entries annotated with measured pKi
Reminder that pKi is minus the log10 of a molar concentration.

Previously resolved entries follow.
smiles.structure	pKi
COc1cc2c(Nc3cc(CC(=O)Nc4cccc(C#N)c4)[nH]n3)ncnc2cc1OCCCN1CCC(CO)CC1	5.59
COc1cc2c(Nc3cc(CC(=O)Nc4cccc(O)c4)[nH]n3)ncnc2cc1OCCCN1CCC(CO)CC1	5.40

Quick one: pKi of COc1cc2c(Nc3cc(CC(=O)Nc4cccc(F)c4F)[nH]n3)ncnc2cc1OCCCN1CCN(CCO)CC1 ? 7.26
